target: SpFabK (Streptococcus pneumoniae); experiment: biochemical; type: biochemical
pIC50: −log10 of the molar value.
Measured Quantity: pIC50

Task: Form field: reported pIC50 of Oc1cc(Cl)ccc1Oc1ccc(Cl)cc1Cl [Triclosan]
Result: < 4.00

----------
target: CdFabK (Clostridioides difficile, UniProt A0A031WIF2); experiment: CdFabK biochemical enzyme assay; parameters: species or system C. difficile
Measured Quantity: IC50

Task: Form field: reported IC50 of Oc1cc(Cl)ccc1Oc1ccc(Cl)cc1Cl [Triclosan]
Result: > 100 µM

----------
Molecular target: SpFabK (Streptococcus pneumoniae)
Sequence (Q9FBC5 1-324): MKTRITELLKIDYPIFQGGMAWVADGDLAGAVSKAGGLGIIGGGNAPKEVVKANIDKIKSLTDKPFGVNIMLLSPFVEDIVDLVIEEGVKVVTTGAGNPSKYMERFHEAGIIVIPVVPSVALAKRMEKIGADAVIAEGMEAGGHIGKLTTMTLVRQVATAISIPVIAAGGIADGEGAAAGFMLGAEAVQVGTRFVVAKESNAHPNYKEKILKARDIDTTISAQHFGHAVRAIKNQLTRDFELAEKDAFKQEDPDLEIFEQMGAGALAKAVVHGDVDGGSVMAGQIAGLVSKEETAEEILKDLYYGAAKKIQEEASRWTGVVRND
Assay: biochemical
Type: biochemical
Conditions: read-out: SpFabK IC50; 150 μM Cro-CoA, 150 μM NADH, 50 nM enzyme
Measured Quantity: IC50 (µM)
Reply with just the number (in µM).

Task: Form field: IC50 recorded for Cc1ccc2c(c1)[C@H]1CN(C)CC[C@H]1N2C(=O)CSc1nnnn1-c1ccc(Cl)cc1 with SpFabK (Streptococcus pneumoniae) (enter value)
Result: 5.32
